Reported pEC50 values for a set of compounds
- subject of test: human S1P1 receptor (Homo sapiens, UniProt P21453)
- Construct: expressed in transfected cells; membranes used
- Sequence (P21453 whole entry): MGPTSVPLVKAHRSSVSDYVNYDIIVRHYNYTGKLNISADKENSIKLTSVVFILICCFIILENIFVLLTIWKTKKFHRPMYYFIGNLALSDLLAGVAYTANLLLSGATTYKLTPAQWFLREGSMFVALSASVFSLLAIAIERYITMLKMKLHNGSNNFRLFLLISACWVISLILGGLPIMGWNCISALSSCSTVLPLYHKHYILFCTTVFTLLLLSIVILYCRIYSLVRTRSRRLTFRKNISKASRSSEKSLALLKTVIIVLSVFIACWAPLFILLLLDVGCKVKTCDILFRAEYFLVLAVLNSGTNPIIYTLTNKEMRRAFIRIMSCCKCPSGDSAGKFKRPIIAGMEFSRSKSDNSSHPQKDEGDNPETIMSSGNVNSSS
- assay comment: GTP γ35S binding assay for S1P1 activity
- Type: biochemical
- protocol conditions: activity potency, S1P1 receptor from GTP γ35S binding; membranes of cells stably expressing the S1P1 receptor
Friendly reminder that pEC50 comes from taking -log10 of the concentration in mol/L.

Record excerpt, results attached:
CCCC(CCCOc1c(C)cc(CNCCCP(=O)(O)O)cc1C)Cc1ccc(C)c(C)c1 (stereo not drawn) [Compound 29] : 6.48
CCCCC(CCCOc1ccc(CNCCC(=O)O)cc1)Cc1ccc(C)c(C)c1 (stereo not drawn) [Compound 3] : 8.30
CCCCC(CCCOc1ccc(CNCCCP(=O)(O)O)cc1F)Cc1ccc(C)c(C)c1 (stereo not drawn) [Compound 21] : 8.63
CCCCCC(CCCOc1ccc(CNCCCP(=O)(O)O)cc1)Cc1ccc(C)c(C)c1 (stereo not drawn) [Compound 1] : 8.29
CCC(CCCOc1ccc(CNCCCP(=O)(O)O)cc1)Cc1ccc(C)c(C)c1 (stereo not drawn) [Compound 6] : 7.67
CCCC(CCCOc1ccc(CNCCCP(=O)(O)O)cc1)Cc1ccc(C)c(C)c1 (stereo not drawn) [Compound 4] : 6.92
CCCCC(CCCOc1c(F)cc(CNCCC(=O)O)cc1OC)Cc1ccc(C)c(C)c1 (stereo not drawn) [Compound 20] : 8.57
CCCCC(CCCOc1ccc(CNCCCP(=O)(O)O)cc1C)Cc1ccc(C)c(C)c1 (stereo not drawn) [Compound 13] : 8.18

Can you look up pEC50 on human S1P1 receptor (Homo sapiens, UniProt P21453) for CCCCC(CCCOc1c(F)cc(CNCCCP(=O)(O)O)cc1OC)Cc1ccc(C)c(C)c1 (stereo not drawn) [Compound 19] ?
9.48

Proceed to CCCC(CCCOc1ccc(CNCCC(=O)O)cc1)Cc1ccc(C)c(C)c1 (stereo not drawn) [Compound 5]
8.33

Proceed to CCCCC(CCCOc1ccc(CNCCC(=O)O)cc1F)Cc1ccc(C)c(C)c1 (stereo not drawn) [Compound 22]
7.81

Proceed to CCCC(CCCOc1c(C)cc(CNCCC(=O)O)cc1C)Cc1ccc(C)c(C)c1 (stereo not drawn) [Compound 30]
7.57

Reference for the values: patent US20150045328A1
